assay: chemical genetic growth profiling, strain panel (AID 1159580);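 also: tested at 20 µM; growth read once vehicle control cultures reached saturation at 30 °C; 1 = growth at the plate median or of vehicle wells; lower values mean less growth of the strain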; conditions: S. cerevisiae deletion strains, growth OD, locus YOR070C, strain gyp1, hits give low values
About 2,000 (36%) of roughly 5,500 compounds were called active. About 18% were inconclusive and are not listed. The list shows a part of the results.
Measured normalized growth, listed per entry.

response.value for CO[C@H]1/C=C/O[C@@]2(C)Oc3c(C)c(O)c4c(O)c(c(/C=N/N5CCN(C)CC5)c(O)c4c3C2=O)NC(=O)/C(C)=C\C=C\C(C)[C@H](O)[C@@H](C)[C@@H](O)[C@@H](C)[C@@H](OC(C)=O)[C@@H]1C (some centres not stated) (field: normalized growth) = 1.03 (inactive)

response.value for COc1cc(C(=O)NCc2ccc(OCCN(C)C)cc2)cc(OC)c1OC (field: normalized growth) = 0.997 (inactive)

response.value for CC(C)NCC(O)c1ccc(O)c(O)c1 (configuration not stated) (field: normalized growth) = 0.985 (inactive)

response.value for COc1cc2c(c(OC)c1OC)-c1ccc(OC)c(=O)cc1[C@@H](NC(C)=O)CC2 (field: normalized growth) = 0.995 (inactive)

response.value for NC(=NCCC[C@H](N)C(=O)O)NC(CCC(=O)O)C(=O)O (some centres not stated) (field: normalized growth) = 1 (inactive)
